# studySystem: Aldo-keto reductase family 1 member B1 (Homo sapiens, UniProt P15121)
# experimentalProtocol: Inhibition of human recombinant AKR1B1
log10 of IC50 by entry:
Units before log transform: µM; reported quantity: IC50; transform: log10.

The following compounds have reported results that may help.
Cc1cc(O)c2c(c1)C(=O)c1cc(O)cc(O)c1C2=O    0.54
Cc1cc(O)c2c(c1)C(=O)c1cc(O[C@@H]3O[C@@H](C)[C@H](O)[C@@H](O)[C@H]3O)cc(O)c1C2=O    0.76
Oc1ccc(/C=C/c2cc(O)cc(O)c2)cc1    1.86

With Aldo-keto reductase family 1 member B1 (Homo sapiens, UniProt P15121) as the test system, provide measured log10 of IC50 for this compound: C=CCc1ccc(O)c(-c2cc(CC=C)ccc2O)c1
1.45

With Aldo-keto reductase family 1 member B1 (Homo sapiens, UniProt P15121) as the test system, provide measured log10 of IC50 for this compound: COc1cc(/C=C/C(=O)CC(=O)/C=C/c2ccc(O)c(OC)c2)ccc1O
0.86

---

# studySystem: Aldo-keto reductase family 1 member B10 (Homo sapiens, UniProt O60218)
# Sequence (O60218 whole entry): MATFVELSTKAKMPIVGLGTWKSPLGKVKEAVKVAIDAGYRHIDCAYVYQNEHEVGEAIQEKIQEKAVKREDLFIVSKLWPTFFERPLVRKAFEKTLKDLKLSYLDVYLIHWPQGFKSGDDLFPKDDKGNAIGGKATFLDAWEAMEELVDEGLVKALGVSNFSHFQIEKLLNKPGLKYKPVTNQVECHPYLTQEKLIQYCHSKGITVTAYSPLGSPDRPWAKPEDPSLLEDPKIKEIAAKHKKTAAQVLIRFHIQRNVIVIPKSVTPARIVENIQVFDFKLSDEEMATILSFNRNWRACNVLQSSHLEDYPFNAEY
# experimentalProtocol: Inhibition of AKR1B10 (unknown origin)
observable: log10 of IC50 (log10 of the value in nM)
Units before log transform: nM; reported quantity: IC50; transform: log10.

The following compounds have reported results that may help.
O=C(O)Cn1ccc(=O)n(Cc2ccc(Cl)c([N+](=O)[O-])c2)c1=O    4.33
O=c1cc(-c2ccccc2)oc2cc(O)cc(O)c12 [CHRYSIN]    3.32
O=c1c(O)c(-c2ccc(O)c(O)c2)oc2cc(O)cc(O)c12 [QUERCETIN]    3.28
NC(=O)[C@@H]1C[C@]2(NC(=O)NC2=O)c2cc(F)ccc2O1    4.38
COc1cc(O)ccc1/C=C/C(=O)OCCCc1ccccc1O    2.00
COc1c(Cn2c(=O)ccn(CC(=O)O)c2=O)cc(Br)c(Br)c1Br    2.65
C[C@H](CCC(=O)O)[C@H]1CC[C@H]2[C@@H]3CC[C@@H]4CCCC[C@]4(C)[C@H]3CC[C@]12C [URSOCHOLANIC ACID]    1.70
CC1(C)CC[C@]2(C(=O)O)CC[C@]3(C)C(=CC[C@@H]4[C@@]5(C)C[C@@H](O)[C@H](O)C(C)(C)[C@@H]5CC[C@]43C)[C@@H]2C1 [MASLINIC ACID]    2.78

Here is the next item to consider.
With Aldo-keto reductase family 1 member B10 (Homo sapiens, UniProt O60218) as the test system, provide measured log10 of IC50 for this compound: CC(=O)[C@H]1CC[C@H]2[C@@H]3CC[C@@H]4CC(=O)CC[C@]4(C)[C@H]3CC[C@]12C
2.89

---

# studySystem: Aldo-keto reductase family 1 member B1 (Homo sapiens)
# experimentalProtocol: Inhibition of AKR1B1 (unknown origin)
observable: IC50

C[C@H](CCC(=O)O)[C@H]1CC[C@H]2[C@@H]3C[C@@H](O)[C@@]4(O)C[C@@H](O)CC[C@]4(C)[C@H]3CC[C@]12C    > 100 µM
CC(C)=CCC1=C(O)[C@](O)(CC=C(C)C)C(=O)C(C(=O)C(C)C)=C1O    > 125 µM
CC(C)=CCC1=C(O)[C@](O)(CC=C(C)C)C(=O)C(C(=O)CC(C)C)=C1O    > 125 µM

Respond only with IC50 recorded for C/C(=C\c1ccc(C(=O)O)cc1Br)c1ccc2c(c1)C(C)(C)CCC2(C)C
> 70 µM
